tested_system: T1, IL-18Rα ECD (human)
T1 chain: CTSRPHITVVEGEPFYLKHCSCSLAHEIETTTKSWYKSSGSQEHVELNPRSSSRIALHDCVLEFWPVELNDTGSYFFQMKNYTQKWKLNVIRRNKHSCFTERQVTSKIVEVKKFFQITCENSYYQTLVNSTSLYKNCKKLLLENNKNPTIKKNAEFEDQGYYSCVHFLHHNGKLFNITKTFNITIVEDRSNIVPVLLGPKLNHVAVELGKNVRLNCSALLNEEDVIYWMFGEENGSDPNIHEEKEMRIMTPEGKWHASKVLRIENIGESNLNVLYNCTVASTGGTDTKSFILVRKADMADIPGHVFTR
procedure_details: BLI
attribute_measured: binding result

binder: ms_IL18R_VHHβ17 (antibody, V domains shown) VH: DVPLQESGGGLVQAGGSLRLSCVASGFALDEIAVGWFRQAPGKEREGLSCISSSDGSTLYADSVKGRFTISSDNAKNTVYLQMNSLKPEDTAVYLCAAVRGSCFGRTTHWGQGTQVTVSS
attribute_measured: binding result
recorded_result: no binding
--
binder: ms_IL18R_VHHβ19 (antibody, V domains shown) VH: DVQLQESGGGLVQAGGSLRLSCAASGIRFNPFRMAWYRQAPGKQRELVAAIDSGGSTDYADSVRGRFTISRDNAKITVSLQMNSLKPEDTAVYYCNTQIFARDYWGQGSQVTVSS
attribute_measured: binding result
recorded_result: no binding
--
binder: ms_IL18R_VHHβ21 (antibody, V domains shown) VH: DVQLQESGGGLVQAGGSLRLSCAASGITFSPYVMGWYRQAPGKQRELVADMVNGGSTNYADSVKGRFTIFRDTAANTVTLQMNNLKPDDTAVYYCHIMIFGRASWGQGTQVTVSS
attribute_measured: binding result
recorded_result: no binding
